- System: ABUTILON THEOPHRASTI, MEDIC.
- Assay name: Postemergence herbicidal evaluation, ABUTH (Velvetleaf);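 note: higher means more injury with 8 approaching complete kill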
- Assay type: in vivo
- Stated conditions: Rate 0.016 kg/ha
The reader will find reported ABUTH values listed item by item below.
# respond with the number and nothing more

Compound | Recorded metric | Numeric readout
COC(=O)Cn1c(=O)n(C)c(=O)n(-c2cc(Oc3c(F)cc(C(F)(F)F)cc3Cl)ccc2[N+](=O)[O-])c1=O | ABUTH | 8.3
COC(=O)Cn1c(=O)n(C)c(=O)n(-c2cc(Oc3ccc(C(F)(F)F)cc3Cl)ccc2Cl)c1=O | ABUTH | 7.0
Cn1c(=O)[nH]c(=O)n(-c2cc(Oc3c(F)cc(C(F)(F)F)cc3Cl)ccc2[N+](=O)[O-])c1=O [D, reference compound] | ABUTH | 8.3

Q. Fill in: ABUTH on ABUTILON THEOPHRASTI, MEDIC., entry Cn1c(=O)[nH]c(=O)n(-c2cc(Oc3ccc(C(F)(F)F)cc3Cl)ccc2Cl)c1=O [F, reference compound]
A. 4.0

Hey, just so you know, these numbers are from patent EP0745595A1.
